- measured.target: Adenosine receptor A1 (Bos taurus)
- protocol.description: Percent inhibition of specific [3H]CHA binding on Adenosine A1 receptor in bovine cortical membranes at 10 uM concentration
- Type: cell membranes

molecule: CCOC(=O)c1cnc2c(cnn2/C=C/c2ccccc2)c1N1CCCC1
measured.target: Adenosine receptor A1 (Bos taurus)
inhibition, %: 39
//
molecule: CCCCNc1c(C(=O)OCC)cnc2c1cnn2/C=C/c1ccccc1
measured.target: Adenosine receptor A1 (Bos taurus)
inhibition, %: 60
//
molecule: CCOC(=O)c1cnc2c(cnn2/C=C/c2ccccc2)c1NCc1ccccc1
measured.target: Adenosine receptor A1 (Bos taurus)
inhibition, %: 39
//
molecule: CCOC(=O)c1cnc2c(cnn2/C=C/c2ccccc2)c1N1CCOCC1
measured.target: Adenosine receptor A1 (Bos taurus)
inhibition, %: 40
//
molecule: CCOC(=O)c1cnc2c(cnn2CC(Cl)c2ccccc2)c1N1CCCCC1 (stereo not drawn)
measured.target: Adenosine receptor A1 (Bos taurus)
inhibition, %: 41
//
molecule: CCOCCNc1c(C(=O)OCC)cnc2c1cnn2/C=C/c1ccccc1
measured.target: Adenosine receptor A1 (Bos taurus)
inhibition, %: 51
//
molecule: CCOC(=O)c1cnc2c(cnn2/C=C/c2ccccc2)c1NC1CC1
measured.target: Adenosine receptor A1 (Bos taurus)
inhibition, %: 67
//
molecule: CCOC(=O)c1cnc2c(cnn2/C=C/c2ccccc2)c1NC1CCCCC1
measured.target: Adenosine receptor A1 (Bos taurus)
inhibition, %: 21
//
molecule: CCOC(=O)c1cnc2c(cnn2CC(Cl)COc2ccccc2)c1N1CCCC1 (stereo not drawn)
measured.target: Adenosine receptor A1 (Bos taurus)
inhibition, %: 33
//
molecule: CCOC(=O)c1cnc2c(cnn2CC(Cl)COc2ccccc2)c1NCc1ccccc1 (stereo not drawn)
measured.target: Adenosine receptor A1 (Bos taurus)
inhibition, %: 36
//
molecule: CCCNc1c(C(=O)OCC)cnc2c1cnn2/C=C/c1ccccc1
measured.target: Adenosine receptor A1 (Bos taurus)
inhibition, %: 40
//
molecule: CCOC(=O)c1cnc2c(cnn2/C=C/c2ccccc2)c1NCCc1ccccc1
measured.target: Adenosine receptor A1 (Bos taurus)
inhibition, %: 58
//
molecule: CCOC(=O)c1cnc2c(cnn2CC(Cl)COc2ccccc2)c1N1CCOCC1 (stereo not drawn)
measured.target: Adenosine receptor A1 (Bos taurus)
inhibition, %: 40

----------
- measured.target: Adenosine receptor A1 (Bos taurus, UniProt P28190)
- Sequence (P28190 whole entry): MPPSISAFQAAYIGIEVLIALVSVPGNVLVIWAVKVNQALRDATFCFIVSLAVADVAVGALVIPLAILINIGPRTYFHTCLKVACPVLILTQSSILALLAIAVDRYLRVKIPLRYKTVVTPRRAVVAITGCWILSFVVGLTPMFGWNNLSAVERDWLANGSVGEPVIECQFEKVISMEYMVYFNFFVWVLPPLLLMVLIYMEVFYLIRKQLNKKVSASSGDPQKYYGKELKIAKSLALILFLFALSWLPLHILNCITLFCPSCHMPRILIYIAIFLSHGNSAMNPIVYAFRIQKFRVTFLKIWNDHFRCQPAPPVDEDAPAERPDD
- protocol.description: Binding affinity at bovine Adenosine A1 receptor.
Would you mind sorting the entries by Ki according to these classes? bucket A (below 8 nM), bucket B (8 nM to below 30 nM), bucket C (30 nM or more)

molecule: O=C(/C=C/C1=CC=CN2N=C(c3ccccc3)CC12)N1CCCC[C@H]1CCO (stereo partly drawn)
class.assignment: bucket A
//
molecule: O=C(O)CCCn1nc(-c2c(-c3ccccc3)nn3ccccc23)ccc1=O
class.assignment: bucket A
//
molecule: Cc1nn(C)c2c(=O)[nH]c(-c3ccc(Cl)cc3N)nc12
class.assignment: bucket C
//
molecule: CN1C=NC2C(NC3CCCC3)=NC=NC21 (stereo not drawn)
class.assignment: bucket C
//
molecule: Nc1nc(-c2ccncc2)nc2c1c1c(n2-c2ccccc2)CCCC1
class.assignment: bucket C
//
molecule: COc1ccc(-c2nc(N)c3c(C)c(C)n(C(C)c4ccccc4)c3n2)cc1 (stereo not drawn)
class.assignment: bucket C
//
molecule: FC(F)(F)c1nnc2c(NC3CCCC3)nc3ccccc3n12
class.assignment: bucket A
//
molecule: CCCn1c(=O)c2[nH]c(C3CCC(=O)C3)nc2n(CCC)c1=O (stereo not drawn)
class.assignment: bucket B
//
molecule: C[C@H](c1ccccc1)n1c2ccccc2c2c(N)nc(-c3ccccc3)nc21
class.assignment: bucket A
//
molecule: c1ccc(-c2nc3c(NC4CCCC4)[nH]c4ccccc4c-3n2)cc1
class.assignment: bucket B
//
molecule: Nc1nc2ccc(Cl)cc2n2nc(-c3ccccc3F)nc12
class.assignment: bucket B
